Cited source for all entries: the supplement of paper PMC6607015

Tested on: A431
Assay: whole-cell filipin (free cholesterol) integrated intensity, Z-score; higher = more cholesterol staining
Conditions: compound concentration in added solution (µM; 5 µl added to 20 µl cells): 10; 18 h
Where a name gives a salt, the structure may show the parent alone.
Label rule met when whole-cell filipin (z-score) is at or above -0.3; otherwise label rule not met.

Could you tell me if the measured whole-cell filipin (z-score) of Cc1cccc(C)c1OCC(C)N (stereo not drawn) [Mexiletine hydrochloride] reaches -0.3 or more?
rule not met

----------
Tested on: A431
Assay: filipin (cholesterol) integrated intensity within LBPA endosomes, Z-score; higher = more cholesterol in LBPA endosomes
Settings: compound concentration in added solution (µM; 5 µl added to 20 µl cells): 10; 18 h
Counter-ions that a name gives are not always drawn.
Label Condition met when filipin (z-score) is at or above -0.5; otherwise label Condition not met.

Nc1ccc(S(=O)(=O)Nc2ncccn2)cc1	Condition met
CO/N=C(\C(=O)N[C@@H]1C(=O)N2C(C(=O)O)=C(C[N+]3(C)CCCC3)CS[C@H]12)c1csc(N)n1 [Cefepime hydrochloride]	Condition met

Could you tell me if the measured filipin (z-score) of CC(=O)O[C@]1(C(C)=O)CC[C@H]2[C@@H]3C=C(C)C4=CC(=O)CC[C@]4(C)[C@H]3CC[C@@]21C [Megestrol acetate] reaches -0.5 or more?
Condition met

One more compound: "C[C@H]1[C@H](NC(=O)/C(=N\OC(C)(C)C(=O)O)c2csc(N)n2)C(=O)N1S(=O)(=O)O"
Condition not met

One more compound: "COc1c2occc2c(OC)c2c(=O)cc(C)oc12"
Condition met

One more compound: Cc1onc(-c2ccccc2Cl)c1C(=O)N[C@@H]1C(=O)N2[C@@H]1SC(C)(C)[C@@H]2C(=O)O [Cloxacillin sodium salt]
Condition not met

One more compound: Cn1nnc2c(C(N)=O)ncn2c1=O [Temozolomide]
Condition met
